system: hmGluR2/hCaR*; experiment: fluorescence-based functional assay, HEK […] cells; format: cell-based, Homo sapiens; details: read-out: Effect; positive allosteric modulator; with 0.02 μM DCG-IV as agonist
Readout Type: pEC50
Note on pEC50: it is the negative log10 of concentration, concentration in mol/L.

Name the recorded pEC50 for Cc1cc(-c2nc(CN3CCNCC3)no2)cc2c1C(=O)N(Cc1ccc(OC(F)(F)F)cc1)C2 .
6.55

* * *

molecular target: Norepinephrine transporter (Homo sapiens)
Sequence (P23975 whole entry): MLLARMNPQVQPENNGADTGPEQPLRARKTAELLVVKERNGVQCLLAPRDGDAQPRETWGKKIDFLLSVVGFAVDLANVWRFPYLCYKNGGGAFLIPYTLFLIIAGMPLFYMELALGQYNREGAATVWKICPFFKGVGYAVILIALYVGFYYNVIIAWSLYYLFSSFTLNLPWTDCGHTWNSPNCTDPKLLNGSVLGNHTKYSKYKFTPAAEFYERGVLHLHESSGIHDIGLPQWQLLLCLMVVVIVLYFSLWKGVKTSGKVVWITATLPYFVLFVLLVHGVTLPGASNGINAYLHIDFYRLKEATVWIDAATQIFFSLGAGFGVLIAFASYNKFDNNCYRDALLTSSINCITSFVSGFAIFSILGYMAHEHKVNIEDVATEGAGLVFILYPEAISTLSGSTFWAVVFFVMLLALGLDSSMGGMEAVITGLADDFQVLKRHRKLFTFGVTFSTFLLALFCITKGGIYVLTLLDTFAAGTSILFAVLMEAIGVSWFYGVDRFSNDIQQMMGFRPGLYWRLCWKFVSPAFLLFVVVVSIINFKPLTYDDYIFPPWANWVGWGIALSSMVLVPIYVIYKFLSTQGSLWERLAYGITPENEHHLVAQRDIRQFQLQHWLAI
Readout Type: pIC50
Note on pIC50: it is the negative log10 of concentration, concentration in mol/L.

Name the recorded pIC50 for Cc1cc(-c2nc(CN3CCNCC3)no2)cc2c1C(=O)N(Cc1ccc(OC(F)(F)F)cc1)C2 .
5.33

Reference source for all entries: paper PMC4529372
